Sourced from patent US20240226314A1

molecular target: T1, His-tagged human TfR ectodomain (hTFRC_89-760_G142S; mature protein) (human, UniProt P02786 89-760); experiment: SPR, His-tagged TfR ectodomain captured on anti-His, 1:1 fit
T1 construct: It carries the G142S haplotype; also called hTfR ectodomain
T1 sequence (P02786 89-760 G142S): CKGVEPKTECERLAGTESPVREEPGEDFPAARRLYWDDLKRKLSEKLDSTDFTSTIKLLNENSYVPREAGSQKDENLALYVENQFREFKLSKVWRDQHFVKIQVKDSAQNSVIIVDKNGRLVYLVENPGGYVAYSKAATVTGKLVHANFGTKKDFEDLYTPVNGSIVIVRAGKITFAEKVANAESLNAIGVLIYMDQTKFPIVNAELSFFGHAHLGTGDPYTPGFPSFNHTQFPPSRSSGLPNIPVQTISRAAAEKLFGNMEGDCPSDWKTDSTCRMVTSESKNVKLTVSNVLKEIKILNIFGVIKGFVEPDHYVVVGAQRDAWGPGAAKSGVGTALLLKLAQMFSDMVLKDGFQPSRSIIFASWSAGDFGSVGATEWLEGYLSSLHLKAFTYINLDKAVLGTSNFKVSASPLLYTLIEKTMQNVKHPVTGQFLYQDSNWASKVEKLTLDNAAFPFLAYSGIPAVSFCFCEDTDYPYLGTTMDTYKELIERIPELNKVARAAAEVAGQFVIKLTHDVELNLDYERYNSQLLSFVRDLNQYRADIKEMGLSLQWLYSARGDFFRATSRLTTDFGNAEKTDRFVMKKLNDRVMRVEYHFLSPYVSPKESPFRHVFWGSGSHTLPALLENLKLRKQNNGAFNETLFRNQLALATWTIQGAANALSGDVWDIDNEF
pKd: −log10 of the molar value.
Overview of reported pKd across a group of binders:

>  <binder>
531_1L2_variant8 Fab (Fab, V domains shown, Humanized Fab; The His-tag was removed with TEV protease before SPR) VH: EVQLLESGGGLVQPGGSLRLSCAASGYTFTRYYLNWVRQAPGKGLEWIGMIDPSVSETHYADSVKGRATLSVDKSKNTAYLQMNSLRAEDTAVYYCSQIRLPYYYAMDSWGQGTTVTVSS VL: DIQMTQSPSSLSASVGDRVTITCRASQDISSFLNWYQQKPGKAVKLLIYYTSRLQSGVPSRFSGSGSGTDYTLTISSLQPEDFATYFCQQGNTLPRTFGGGTKVEIK

>  <pKd>
7.21

$$$$
>  <binder>
531_1L2_variant24 Fab (Fab, V domains shown, Humanized Fab; The His-tag was removed with TEV protease before SPR) VH: QVQLVQSGAEVKKPGASVKVSCKASGYTFTRYYLNWVRQAPGQGLEWIGMIDPSVSETHYAQKFQGRATLTVDKSTSTAYMELSSLRSEDTAVYYCSQIRLPYYYAMDSWGQGTTVTVSS VL: DIQMTQSPSSLSASVGDRVTITCRASQDISSFLNWYQQKPGKAVKLLIYYTSRLQSGVPSRFSGSGSGTDFTLTISSLQPEDFATYFCQQGNTLPRTFGGGTKVEIK

>  <pKd>
7.99

$$$$
>  <binder>
531_1L2_variant16 Fab (Fab, V domains shown, Humanized Fab; The His-tag was removed with TEV protease before SPR) VH: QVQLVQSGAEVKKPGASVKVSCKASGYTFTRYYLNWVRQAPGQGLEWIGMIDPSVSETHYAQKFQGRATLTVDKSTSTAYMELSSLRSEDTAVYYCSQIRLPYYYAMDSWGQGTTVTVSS VL: DIQMTQSPSSLSASVGDRVTITCRASQDINSFLNWYQQKPGKAVKLLIYYTSRLQSGVPSRFSGSGSGTDYTLTISSLQPEDFATYFCQQGNTLPRTFGGGTKVEIK

>  <pKd>
7.99

$$$$
